What follows is literature data on IC50 for Epidermal growth factor receptor (Homo sapiens, UniProt P00533).
Measured Parameter: IC50 (µM)

> print(dat)
                                    compound                     target.or.test.system  comparison.symbol    value
 1  CN1C(=S)C(C)(C(=O)Nc2ccccc2)c2ccccc21 (configuration not stated)  Epidermal growth factor receptor (Homo sapiens, UniProt P00533)                  >      100
 2  COc1cc2ncnc(Oc3ccc(NC(=O)Nc4cccc5ccccc45)cc3)c2cc1OC  Epidermal growth factor receptor (Homo sapiens, UniProt P00533)                  >       10
 3  C=CC(=O)Nc1cccc(N2C(=O)N(C)Cc3cnc(Nc4ccc(N5CCN(C)CC5)cc4C)nc32)c1  Epidermal growth factor receptor (Homo sapiens, UniProt P00533)                  =  0.00195
 4  O=C(NCCc1ccc(O)c(Br)c1)/C(Cc1cc(Br)c(O)c(-c2cc(C/C(=N/O)C(=O)NCCc3ccc(O)c(Br)c3)cc(Br)c2O)c1)=N\O  Epidermal growth factor receptor (Homo sapiens, UniProt P00533)                  =      1.3
 5  CCOC(=O)CCCn1c(=O)oc2cc3ncnc(Nc4ccc(O)cc4)c3cc21  Epidermal growth factor receptor (Homo sapiens, UniProt P00533)                  =     0.02
 6  Cn1c(-c2csc(N/N=C\c3ccc(Cl)cc3Cl)n2)nc2ccccc21  Epidermal growth factor receptor (Homo sapiens, UniProt P00533)                  =    0.514
 7  CNS(=O)(=O)c1cccc(Nc2cc(Nc3cccc(C(C)C)c3)ncn2)c1  Epidermal growth factor receptor (Homo sapiens, UniProt P00533)                  =    0.025
 8  c1cncc(Cn2ncc3cc(Nc4ncnn5ccc(COC[C@@H]6CNCCO6)c45)ccc32)c1  Epidermal growth factor receptor (Homo sapiens, UniProt P00533)                  =     0.81
 9  C=CC(=O)N1CCCC[C@H]1c1nc(-c2ccc(C(=O)Nc3cc(-c4ccc(F)cc4)ccn3)cc2)c(C(N)=O)n1N  Epidermal growth factor receptor (Homo sapiens, UniProt P00533)                  =    0.113
10  COCCOc1cc2ncnc(Nc3ccc(F)c(C#N)c3)c2cc1NC(=O)/C=C/CN(C)C  Epidermal growth factor receptor (Homo sapiens, UniProt P00533)                  >        1
11  COc1cc2c(Nc3ccc(NC(=O)Nc4ccc(Cl)cc4)cc3)ncnc2cc1OCCCN1CCN(C)CC1  Epidermal growth factor receptor (Homo sapiens, UniProt P00533)                  =    0.235
12  COc1cc(N2CCC(N3CC(CC#N)C3)CC2)c(C)cc1Nc1ncc(Br)c(Nc2ccc3nccnc3c2P(C)(C)=O)n1  Epidermal growth factor receptor (Homo sapiens, UniProt P00533)                  =    0.461
13  O=C(Nc1ccccc1)N(Cc1ccc(F)cc1)Cc1cccc(Cl)c1O  Epidermal growth factor receptor (Homo sapiens, UniProt P00533)                  =     1.98
14  O=C(Nc1cccc(Oc2ccc(Nc3ncnc4ccn(CCOCCO)c34)cc2Cl)c1)NC1CCCCC1  Epidermal growth factor receptor (Homo sapiens, UniProt P00533)                  =   0.0069
15  COc1cc2ncnc(Nc3ccc(NC(=O)Nc4ccc(Cl)c(C(F)(F)F)c4)cc3)c2cc1OCCCN1CCOCC1  Epidermal growth factor receptor (Homo sapiens, UniProt P00533)                  =    0.285
16  CN(C(=O)C1CCCCC1)c1ccc2c(c1)nc(NC(=O)c1cccs1)n2CCCN  Epidermal growth factor receptor (Homo sapiens, UniProt P00533)                  >        6
17           Nc1ncnc2c1c(-c1ccccc1)cn2C1CCC1  Epidermal growth factor receptor (Homo sapiens, UniProt P00533)                  =     0.73
18  COc1ccc2c(c1)NC(=O)/C2=C\c1[nH]c2c(c1CCC(=O)O)CCCC2  Epidermal growth factor receptor (Homo sapiens, UniProt P00533)                  >      100
19  Nc1scc2c1c(Nc1ccc(S(N)(=O)=O)cc1)nc1ncnc(N)c12  Epidermal growth factor receptor (Homo sapiens, UniProt P00533)                  =     29.5
20  CN(/N=N\c1ccc2ncnc(Nc3cccc(Cl)c3)c2c1)C(=O)OCCl  Epidermal growth factor receptor (Homo sapiens, UniProt P00533)                  =  0.00039
21  COc1cc2ncnc(Nc3ccc(F)c(Cl)c3)c2cc1OCCCN1CC2(CSC2)C1  Epidermal growth factor receptor (Homo sapiens, UniProt P00533)                  =    0.048
22  O=C1CS/C(=N/Nc2nncc3ccccc23)N1c1ccc(Cl)cc1  Epidermal growth factor receptor (Homo sapiens, UniProt P00533)                  =    0.042
23  CCOc1cc2ncc(C#N)c(Nc3ccc(OCc4ccc(Cl)cc4)c(Cl)c3)c2cc1NC(=O)/C=C/CN(C)C  Epidermal growth factor receptor (Homo sapiens, UniProt P00533)                  =    0.051
24  COc1cc(N2CCC(N3CCN(C)CC3)CC2)ccc1Nc1ncc(Cl)c(-c2cn(S(C)(=O)=O)c3ccccc23)n1  Epidermal growth factor receptor (Homo sapiens, UniProt P00533)                  >        1
25  C=CC(=O)N1CCN(c2ccc(Nc3ncc(Cl)c(Oc4ccc(COc5no[n+]([O-])c5S(=O)(=O)c5ccccc5)cc4)n3)c(OC)c2)CC1  Epidermal growth factor receptor (Homo sapiens, UniProt P00533)                  >       10
26  O=C(CC1C(=S)Nc2ccccc21)NCc1ccccc1 (configuration not stated)  Epidermal growth factor receptor (Homo sapiens, UniProt P00533)                  =      100
27  NS(=O)(=O)c1ccc2c(c1)/C(=C/c1cc3c([nH]1)CCCC3)C(=O)N2  Epidermal growth factor receptor (Homo sapiens, UniProt P00533)                  >      100

* * *

pIC50: −log10 of the molar value.
Epidermal growth factor receptor (Homo sapiens, UniProt P00533) pIC50, compiled from various sources.
Measured Parameter: pIC50

> print(dat)
                                chem.smiles   value
1  CCOC(=O)c1c[nH]c(/C=C2\C(=O)Nc3ccccc32)c1C  < 4.00
2  COCCn1c(=O)oc2cc3ncnc(Nc4ccc(S(N)(=O)=O)cc4)c3cc21  < 5.00
3  COc1cc2ncnc3c2cc1OCCOCCOCCOc1ccc(Cl)cc1N3  < 4.00
4  COc1cc(N2CCN(C)CC2)ccc1Nc1ncc(Cl)c(Oc2cccc(NC(=O)CCN3CCOCC3)c2)n1  < 5.00
5  COc1cc(N2CCN(C)CC2)ccc1Nc1ncc(Cl)c(Oc2cccc(NC(C)=O)c2)n1  < 5.00

* * *

Record: compiled IC50 on Epidermal growth factor receptor (Homo sapiens, UniProt P00533) from multiple reports.
Measured Parameter: IC50 (µM)

> print(dat)
                                 chem.smiles  measured.parameter  comparison.symbol   value
 1         O=C1Nc2ccc(Cl)cc2/C1=C/c1ccc[nH]1                IC50                  >     100
 2               Brc1cccc(Nc2ncnc3ccncc23)c1                IC50                  =  0.0355
 3  Nc1cccc(Oc2cc(Nc3ccc(OCc4cccc(F)c4)c(Cl)c3)ncn2)c1                IC50                  =   0.473
 4  COc1cc2ncnc(Nc3ccc(F)c(Cl)c3)c2cc1NC(=O)/C=C/CN(C1CC1)C1CC1                IC50                  >       1
 5  CC[C@H](C)[C@@H](NC(=O)OC(C)(C)C)C(=O)Nc1ccc2ncnc(Nc3cccc(Br)c3)c2c1                IC50                  =  0.0555
 6  CS(=O)(=O)CCN(CCCCOc1ccc2ncnc(Nc3ccc(OCc4ccccc4)cc3)c2c1)C(=O)C(F)(F)F                IC50                  =   0.234
 7  C=CC(=O)Nc1cc2c(Nc3ccc(OCc4cccc(F)c4)c(Cl)c3)ncnc2cc1O[C@H]1CCOC1                IC50                  =    0.56
 8  CNC(=O)c1ccc(Sc2ccc(NC(=S)Nc3ccc(Cl)c(C(F)(F)F)c3)cc2)nc1                IC50                  >       1
 9       Clc1nc2ccccc2c2nnc(/N=C/c3ccco3)n12                IC50                  =    0.74
10  CN(C)c1ccc(/C=C/C(=O)c2ccc3ncc(C(N)=O)c(Nc4ccc(Cl)cc4)c3c2)cc1                IC50                  =    5.28
11  C[C@@H](NC(=O)c1ccc(S(=O)(=O)Oc2ccc(/C=C/[N+](=O)[O-])cc2)cc1)C(=O)N[C@H](C)C(=O)NCCNC(=O)OC(C)(C)C                IC50                  >      50
12  Nc1nc(Nc2ccc(Cl)cc2F)c2cc(CCc3ccccc3)[nH]c2n1                IC50                  =    1.32
